system: PrP^Sc in dividing ScN2a-cl3 cells; type: cell-based, mouse; settings: SPC assay, dividing cells
Given measured Inhibition of Baseline PrP^5c (%) Dividing Cells ELISA, output yes if it is greater than or equal to 80% and no if not.

molecule=O=C(Nc1ccc(F)c(Cl)c1)Nc1ccc(Cl)c(Cl)c1 assigned_category=yes
molecule=CC(=O)c1ccc(N2CCN(Cc3cccc(Cl)c3)CC2)cc1 assigned_category=yes
molecule=CC(=O)c1ccc(N2CCN(Cc3ccccc3Cl)CC2)cc1 assigned_category=yes
molecule=COc1ccc(CN2CCN(c3ccc(C(C)=O)cc3)CC2)c(C)c1C assigned_category=yes
molecule=O=C(Nc1ccc(Cl)cc1)Nc1ccc(C(F)(F)F)cc1Cl assigned_category=no
molecule="Cc1ccc2[nH]c3c(c2c1)CCCC3NCCCN(C)C (stereo not shown)" assigned_category=yes
molecule="Cc1ccc2c(c1)c1c(n2CC(O)CO)C(=O)CCC1 (stereo not shown)" assigned_category=no
molecule="Cc1ccc2[nH]c3c(c2c1)CCCC3NC1CCCCC1 (stereo not shown)" assigned_category=no

---

test: physchem; conditions: pH 7.4, aqueous buffer
EXPERIMENTAL_ENDPOINT: solubility (µM)

structure_string=COCCOc1cccc(Nc2nc(-c3ccc(-c4ccccc4)cc3)cs2)n1 experimental_endpoint=solubility readout_units=µM inequality_sign== quantitative_result=2.7
structure_string=COCCOc1ccc(-c2ccc(-c3csc(Nc4cccc(C)n4)n3)cc2)cn1 experimental_endpoint=solubility readout_units=µM inequality_sign== quantitative_result=2.2
structure_string=COCCOc1cc(-c2ccc(-c3csc(Nc4cccc(C)n4)n3)cc2)ccn1 experimental_endpoint=solubility readout_units=µM inequality_sign=< quantitative_result=0.5
structure_string=Cc1cccc(Nc2nc(-c3ccc(-c4cc[n+]([O-])cc4)cc3)cs2)n1 experimental_endpoint=solubility readout_units=µM inequality_sign== quantitative_result=15.2
structure_string=Cc1cccc(Nc2nc(-c3ccc(-c4ccc(N5CCN(C)CC5)nc4)cc3)cs2)n1 experimental_endpoint=solubility readout_units=µM inequality_sign== quantitative_result=4.4
structure_string=Cc1cccc(Nc2nc(-c3ccc(-c4ccc(OCC#N)nc4)cc3)cs2)n1 experimental_endpoint=solubility readout_units=µM inequality_sign=< quantitative_result=0.4
structure_string=Cc1cccc(Nc2nc(-c3ccc(-c4ccnc(N5CCN(C)CC5)c4)cc3)cs2)n1 experimental_endpoint=solubility readout_units=µM inequality_sign== quantitative_result=40.2
structure_string=CN(C)c1cc(-c2ccc(-c3csc(NC(=O)C4CC4)n3)cc2)ccn1 experimental_endpoint=solubility readout_units=µM inequality_sign=< quantitative_result=0.5
structure_string=Cc1cccc(Nc2nc(-c3ccc(-c4ccc(N(C)C)nc4)cc3)cs2)n1 experimental_endpoint=solubility readout_units=µM inequality_sign== quantitative_result=14.3
structure_string=Cc1cccc(Nc2nc(-c3ccc(-c4ccc(OC(C)C)nc4)cc3)cs2)n1 experimental_endpoint=solubility readout_units=µM inequality_sign== quantitative_result=3.2
structure_string=CN(C)c1cccc(Nc2nc(-c3ccc(-c4ccccc4)cc3)cs2)n1 experimental_endpoint=solubility readout_units=µM inequality_sign=< quantitative_result=0.5
structure_string=Cc1cccc(Nc2nc(-c3ccc(-c4ccc[n+]([O-])c4)cc3)cs2)n1 experimental_endpoint=solubility readout_units=µM inequality_sign== quantitative_result=5.1
structure_string=Cc1cccc(Nc2nc(-c3ccc(-c4ccnc(N(C)C)c4)cc3)cs2)n1 experimental_endpoint=solubility readout_units=µM inequality_sign== quantitative_result=1.6
structure_string=Cc1cccc(Nc2nc(-c3ccc(-c4ccnc(OCC#N)c4)cc3)cs2)n1 experimental_endpoint=solubility readout_units=µM inequality_sign=< quantitative_result=0.4
structure_string=O=C(Nc1nc(-c2ccc(-c3ccccc3)cc2)cs1)C1CC1 experimental_endpoint=solubility readout_units=µM inequality_sign== quantitative_result=12.7
structure_string=Cc1cccc(Nc2nc(-c3ccc(-c4ccnc(OC(C)C)c4)cc3)cs2)n1 experimental_endpoint=solubility readout_units=µM inequality_sign== quantitative_result=3.1
